Test: Percent of bioavailability is determined in rat
Type: ADME, organism-based
Details: in vivo
READOUT TYPE: bioavailability (%)
Supply the numeric figure in %, leaving out any unit text.

QUERY: // query bioavailability value for entry CCCn1nc(C(C)(C)C)c(C(=O)O)c1Cc1ccc(-c2ccccc2-c2nn[nH]n2)cc1
RESULT: 45

====

Exercise: state measured Activity for each of the compounds provided.
Tested on: Rattus norvegicus
Assay: Maximum fall in blood pressure in groups of four sodium-depleted rats, after peroral administration at the 3 mg/Kg
Format: functional
Kindly write the number and append the unit.

QUERY: Which Activity is listed for CCCCn1nc(C)c(C(=O)O)c1Cc1ccc(-c2ccccc2-c2nn[nH]n2)cc1 ?
RESULT: 20 mmHg

QUERY: Endpoint output: Activity of CCCCn1nc(C(C)C)c(C(=O)O)c1Cc1ccc(-c2ccccc2-c2nn[nH]n2)cc1 . Value?
RESULT: 35 mmHg

QUERY: Field request: Activity | item: CCCCn1nc(CC)c(C(=O)O)c1Cc1ccc(-c2ccccc2-c2nn[nH]n2)cc1
RESULT: 20 mmHg

QUERY: Which Activity value belongs to CCCn1nc(C)c(C(=O)O)c1Cc1ccc(-c2ccccc2-c2nn[nH]n2)cc1 ?
RESULT: 0 mmHg

QUERY: // Activity lookup, key: CCCCn1nc(C)c(C(=O)O)c1Cc1ccc(-c2ccccc2S(=O)(=O)NC(=O)OC(C)(C)C)cc1
RESULT: 25 mmHg

QUERY: Fill blank: measured Activity of the compound CCCCn1nc(C)c(C(=O)O)c1Cc1ccc(-c2ccccc2S(=O)(=O)NC(=O)OCC(C)C)cc1 is ____.
RESULT: 25 mmHg

QUERY: Recorded Activity for CCCCn1ncc(C(=O)O)c1Cc1ccc(-c2ccccc2-c2nn[nH]n2)cc1 , please?
RESULT: 10 mmHg

QUERY: Any idea what its Activity is? The compound is CCCCc1nc(Cl)c(CO)n1Cc1ccc(-c2ccccc2-c2nnn[nH]2)cc1
RESULT: 13 mmHg

====

Target: Angiotensin II receptor (AT-1) type-1 (Rattus norvegicus, UniProt P29089+P25095)
Assay: In vitro binding affinity for rat liver angiotensin II receptor type 1, determined by displacement of the specially bound [3H]AII radioligand
READOUT TYPE: IC50 (µM)
Answer format: numeric, µM implied, no suffix.

QUERY: Which measured IC50 belongs to CCCn1nc(Cc2ccc(-c3ccccc3-c3nn[nH]n3)cc2)c(C(=O)O)c1C(C)C , tested on Angiotensin II receptor (AT-1) type-1 (Rattus norvegicus, UniProt P29089+P25095)?
RESULT: 0.49

QUERY: Enter reported IC50 observed with Angiotensin II receptor (AT-1) type-1 (Rattus norvegicus, UniProt P29089+P25095) for CCCCn1nc(C)c(C(=O)OC)c1Cc1ccc(-c2ccccc2-c2nn[nH]n2)cc1
RESULT: 0.055

QUERY: Write down the reported IC50 of CCCCn1nc(CCC)c(C(=O)O)c1Cc1ccc(-c2ccccc2-c2nn[nH]n2)cc1 , test system: Angiotensin II receptor (AT-1) type-1 (Rattus norvegicus, UniProt P29089+P25095).
RESULT: 0.01

====

Field: Activity. Provide a value for each of the compounds that follow.
Tested on: Rattus norvegicus
Assay: Maximum fall in blood pressure in groups of four sodium-depleted rats, after peroral administration at the 0.3 mg/Kg
Assay type: functional
Numeric answer only, unit mmHg assumed.

QUERY: For the record CCCn1nc(C2CC2)c(C(=O)O)c1Cc1ccc(-c2ccccc2-c2nn[nH]n2)cc1 , what value of Activity is listed for Rattus norvegicus?
RESULT: 0

QUERY: For Rattus norvegicus, provide Activity of CCCn1nc(C(C)C)c(C(=O)O)c1Cc1ccc(-c2ccccc2-c2nn[nH]n2)cc1 please.
RESULT: 30

QUERY: Form: Entry = CCCn1nc(CC)c(C(=O)O)c1Cc1ccc(-c2ccccc2-c2nn[nH]n2)cc1 | System = Rattus norvegicus | Activity = ____
RESULT: 10

QUERY: Can you look up Activity on Rattus norvegicus for CCCn1nc(C(C)(C)C)c(C(=O)O)c1Cc1ccc(-c2ccccc2-c2nn[nH]n2)cc1 ?
RESULT: 30

====

Target: Angiotensin II receptor (AT-1) type-1 (Rattus norvegicus, UniProt P29089+P25095)
Assay: In vitro binding affinity for rat liver angiotensin II receptor type 1, determined by displacement of the specially bound [3H]AII radioligand
READOUT TYPE: log10 IC50 (log10 of the value in nM)
All values: base-10 log of IC50 in nM.

QUERY: Could you share which log10 IC50 value was measured for CCCCn1nc(Cc2ccc(-c3ccccc3-c3nn[nH]n3)cc2)c(C(=O)O)c1CC ?
RESULT: 2.04

QUERY: Requested read-out: log10 IC50. Entry: CCCCn1nc(C)c(CO)c1Cc1ccc(-c2ccccc2-c2nn[nH]n2)cc1
RESULT: 2.54

QUERY: What does the data say about its log10 IC50? Entry: CCCn1nc(CC)c(C(=O)O)c1Cc1ccc(-c2ccccc2-c2nn[nH]n2)cc1
RESULT: 0.57

QUERY: Give the measured log10 IC50 of CCCn1nc(C(C)C)c(C(=O)O)c1Cc1ccc(-c2ccccc2NS(=O)(=O)C(F)(F)F)cc1 .
RESULT: 1.87

QUERY: Requested field: log10 IC50. Item: CCCn1nc(C2CC2)c(C(=O)O)c1Cc1ccc(-c2ccccc2S(=O)(=O)NC(=O)c2ccccc2)cc1
RESULT: 1.26

QUERY: What does the record list as log10 IC50 for CCCn1nc(C2CC2)c(C(N)=O)c1Cc1ccc(-c2ccccc2-c2nn[nH]n2)cc1 ?
RESULT: 1.00

QUERY: Reported log10 IC50, compound CCCCn1nc(C)c(C(C)=O)c1Cc1ccc(-c2ccccc2-c2nn[nH]n2)cc1 : ____
RESULT: 1.81

QUERY: If you can, please state the reported log10 IC50 value of CCCCn1nc(C)c(C=O)c1Cc1ccc(-c2ccccc2-c2nn[nH]n2)cc1 .
RESULT: 1.87

QUERY: Requested read-out: log10 IC50. Entry: CCCCn1ncc(C(=O)O)c1Cc1ccc(-c2ccccc2-c2nn[nH]n2)cc1
RESULT: 0.96

QUERY: Recorded log10 IC50 of CCCCn1nc(C)c(C(N)=O)c1Cc1ccc(-c2ccccc2-c2nn[nH]n2)cc1 , please.
RESULT: 1.85

QUERY: Given the entry CCCCn1nc(C)c(C(=O)O)c1Cc1ccc(-c2ccccc2S(=O)(=O)NC(=O)OCC(C)C)cc1 , report its measured log10 IC50.
RESULT: 1.48

QUERY: Looking for the measured log10 IC50 of CCCCn1nc(CC)c(C(=O)O)c1Cc1ccc(-c2ccccc2-c2nn[nH]n2)cc1 , can you help?
RESULT: 0.94

QUERY: May I ask what log10 IC50 has been recorded for CCCCn1nc(C(C)C)c(C(=O)O)c1Cc1ccc(-c2ccccc2-c2nn[nH]n2)cc1 ?
RESULT: 0.86

QUERY: Using the record for CCn1nc(C)c(C(=O)O)c1Cc1ccc(-c2ccccc2-c2nn[nH]n2)cc1 , report its log10 IC50.
RESULT: 2.08

QUERY: Endpoint output: log10 IC50 of Cc1nn(CC(F)(F)F)c(Cc2ccc(-c3ccccc3-c3nn[nH]n3)cc2)c1C(=O)O . Value?
RESULT: 2.89

QUERY: Which log10 IC50 value is on record for CCCCn1nc(C)c(C(=O)O)c1Cc1ccc(-c2ccccc2S(=O)(=O)NC(=O)c2ccccc2)cc1 ?
RESULT: 1.08

QUERY: Can you look up the measured log10 IC50 of CCCn1nc(C(C)C)c(C(=O)O)c1Cc1ccc(-c2ccccc2-c2nn[nH]n2)cc1 for me?
RESULT: 0.83

QUERY: Can you look up the measured log10 IC50 of CCCCn1nc(-c2ccccc2)c(C(=O)O)c1Cc1ccc(-c2ccccc2-c2nn[nH]n2)cc1 for me?
RESULT: 0.95

QUERY: # get_value(readout='log10 IC50', item= CCCn1nc(C(C)(C)C)cc1Cc1ccc(-c2ccccc2-c2nn[nH]n2)cc1 )
RESULT: 1.97

====

Target: Angiotensin II receptor (AT-1) type-1 (Rattus norvegicus, UniProt P29089+P25095)
Test: In vitro binding affinity for rat liver angiotensin II receptor type 1, determined by displacement of the specially bound [3H]AII radioligand
For each record, write down the corresponding IC50.
# value in nM; strip the unit string

QUERY: Which IC50 reading was recorded for the molecule CCCn1nc(C(C)(C)C)c(C(=O)O)c1Cc1ccc(-c2ccccc2-c2nn[nH]n2)cc1 ?
RESULT: 3

QUERY: Given the molecule CCCn1nc(Cc2ccccc2)c(C(=O)O)c1Cc1ccc(-c2ccccc2-c2nn[nH]n2)cc1 , what is its reported IC50?
RESULT: 4.6

QUERY: Would you mind telling me what IC50 value was observed for Cc1nn(-c2ccccc2)c(Cc2ccc(-c3ccccc3-c3nn[nH]n3)cc2)c1C(=O)O ?
RESULT: 78

QUERY: Suppose we examine the molecule CCCn1nc(C2CC2)c(C(=O)O)c1Cc1ccc(-c2ccccc2-c2nn[nH]n2)cc1 ; what IC50 value has been reported?
RESULT: 4.4

QUERY: What value of measured IC50 is listed for CCCn1nc(C2CC2)c(C(N)=O)c1Cc1ccc(-c2ccccc2S(=O)(=O)NC(=O)c2ccccc2)cc1 ?
RESULT: 7.4

QUERY: // returns reported IC50 for input CCCCn1nc(C)c(C(=O)O)c1Cc1ccc(-c2ccccc2S(=O)(=O)NC(=O)OC(C)(C)C)cc1
RESULT: 13

QUERY: For CCCn1nc(C)c(C(=O)O)c1Cc1ccc(-c2ccccc2-c2nn[nH]n2)cc1 , what is its reported IC50?
RESULT: 9.3

QUERY: # IC50 lookup, item CCCCn1nc(Cc2ccc(-c3ccccc3-c3nn[nH]n3)cc2)c(C(=O)O)c1C
RESULT: 290

QUERY: Requested read-out: IC50. Entry: CCCn1nc(C(C)(C)C)c(C(=O)OC)c1Cc1ccc(-c2ccccc2-c2nn[nH]n2)cc1
RESULT: 19
